# testMethodNotes: adipocyte viability effects, profiling panel, cell-based, 3T3-L1 adipocytes, calcein-AM fluorescence, 48 h, basal (AID 1163); also: test concentration not given here
# testConditions: 3T3-L1 adipocytes viability, higher = more signal
Categorize each record by its z-score using Low: < -0.2; Mid: ≥ -0.2 and < 0.2; High: ≥ 0.2

• CC(C)CCN1CCc2nc(COc3ccccc3)c3c(c2C1)CO[C@@H](C)C3 = Low
• COC(=O)[C@H](C)NC(=O)CCC1CC(OC(=O)NCc2ccc3c(c2)OCO3)CC2(CCCC(COC(=O)NCC3CCCCC3)O2)O1 (stereo partly drawn) = Low
• C=CC[C@@H]1C=C[C@H](ON=C(C)CCN2CCc3nc(-c4ccccc4)c(-c4ccccc4)cc3C2)[C@@H](CO)O1 = Mid
• Cn1c(=O)n2n(c1=O)[C@H]1[C@H](O)[C@@H]3O[C@@H]3C(=O)[C@H]1CC2 = Mid
• CC(C)=CCCC(C)=CCON=C1C[C@@H](O)[C@@H](O)[C@@H]2[C@@H]3C(=O)N(Cc4ccccc4)C(=O)[C@@H]3CC[C@H]12 = High
• C[C@@H]1NC(=O)[C@@H](C)COC(=O)[C@H](C)NC(=O)[C@@H](C)COC1=O = High
• COC(=O)CC=C[C@@H](C)[C@@H](C=NO[C@@H]1O[C@H](COC(C)=O)[C@@H](OC(C)=O)[C@H](OC(C)=O)[C@H]1OC(C)=O)OC = Low
• COC(=O)[C@@H]1CC[C@H](C)[C@@H](c2ccc(C)cc2)N1C(=O)c1ccc(C=NO[C@@H]2O[C@H](COC(C)=O)[C@@H](OC(C)=O)[C@H](OC(C)=O)[C@H]2OC(C)=O)cc1 = High
• C#CCCCON=C1[C@H]2CCn3c(=O)n(C)c(=O)n3[C@H]2[C@H](O)[C@@H]2O[C@H]12 = Low
• CCc1cc2c(nc1CC)CCN(CCC(C)=NOC[C@H]1O[C@H](c3ccccc3)C=C[C@@H]1Oc1ccc(OC)cc1)C2 = High
• Cc1cc2c(c(=O)o1)[C@@H](O)[C@H]1O[C@H]1C2=O = High

###

# assayedTarget: Calmodulin-1 (Homo sapiens)
# testMethodNotes: CALM1 binders on microarrays, EGTA buffer, profiling panel, biochemical, small-molecule microarray, Cy5-labelled CALM1 (AID 1111);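 also: labelled calmodulin applied in Tris saline Tween buffer holding calcium plus EGTA and DTT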
# testConditions: Cy5-CALM1 binding fluorescence, higher = more signal
readoutKind: composite z-score

- O=C1CCCC(C2=CCCCC2=O)C1 (stereo not drawn): -0.732
- C#CCCCON=C1C[C@@H](O)[C@@H](O)[C@@H]2[C@@H]3C(=O)N(Cc4ccccc4)C(=O)[C@@H]3CC[C@@H]12: -0.274
- CCCNC(=O)OC[C@H]1O[C@H](CCON=C(C)CCN2CCCc3nc(C)c(C)cc32)C=C[C@@H]1Oc1ccc(OC)cc1: 0.65

###

# testMethodNotes: mitochondrial membrane potential change in A549 cells, profiling panel, cell-based, JC-1 fluorescence, basal, 24 h, 100 nL (AID 1138);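 also: A549 lung adenocarcinoma cells under basal conditions with no added stimulus; test concentration not given here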
# testConditions: higher = more signal
Please note: Condition met applies when z-score is 0.05 or greater, and Condition not met applies otherwise.

- O=C1[C@H]2[C@H]3[C@H](O)[C@H](O)CC(=NOC[C@@H](O)COCc4ccco4)[C@@H]3CC[C@H]2C(=O)N1C[C@@H]1CCCO1: Condition not met
- CCOC(=O)[C@H](CC(C)C)NC(=O)CCC1CC(OC(=O)NCCc2ccc(F)cc2)CC2(CCCC(COC(=O)NCCOc3ccccc3)O2)O1 (some centres not stated): Condition met
- COc1cccc([C@H]2Oc3ccc(OC)cc3C(=NOC[C@@H](C)[C@H](OCc3ccccc3)C(C)C)[C@@H]2O)c1: Condition not met
- CC(C)(C)N1C(=O)[C@H]2[C@H]3[C@H](O)C=CC(=O)[C@@H]3CC[C@H]2C1=O: Condition met
- CCN1C(=O)[C@H]2[C@H]3[C@H](O)[C@H](O)CC(=NO[C@@H](C)c4cn([C@H](CO)Cc5ccccc5)nn4)[C@@H]3CC[C@H]2C1=O: Condition not met
- C=COC[C@@H]1CN2[C@@H](CC[C@@H](C)[C@@H]2c2ccc(Br)cc2)C(=O)O1: Condition not met
- O=C(C=Cc1ccc2c(c1)OCO2)c1ccc(F)cc1: Condition not met
- CCOC(=O)[C@H](CC(C)C)NC(=O)CCC1CC(OC(=O)NCCc2ccc(F)cc2)CC2(CCCC(COC(=O)NCCc3ccccc3OC)O2)O1 (some centres not stated): Condition met
- Cc1ccc(S(=O)(=O)N[C@H]2COC(=O)CC=C[C@@H](C)COC(=O)CC=C[C@@H]2C)cc1: Condition met
- CC(C)C[C@H](NC(=O)CCC1CC(OC(=O)NCc2cccc3ccccc23)CC2(CCCC(COC(=O)NCc3ccccc3)O2)O1)C(=O)NCC(c1ccccc1)c1ccccc1 (some centres not stated): Condition met
- COc1cccc([C@H]2Oc3ccc(OC)cc3C(=NO[C@@H](C)c3cn([C@H](CO)Cc4ccccc4)nn3)[C@@H]2O)c1: Condition not met
- CC(C)=CCCC(C)=CCON=C1C[C@@H](O)[C@@H](O)[C@@H]2[C@@H]3C(=O)N(C(C)(C)C)C(=O)[C@@H]3CC[C@H]12: Condition not met
- C#CCCCON=C1C[C@@H](O)[C@@H](O)[C@@H]2[C@@H]3C(=O)N(CC)C(=O)[C@@H]3CC[C@@H]12: Condition not met
- CC(C)=CCCC(C)=CCON=C1C[C@@H](O)[C@@H](O)[C@@H]2[C@@H]3C(=O)N(c4ccc(F)cc4F)C(=O)[C@@H]3CC[C@@H]12: Condition not met
- CCOC(=O)[C@H](CC(C)C)NC(=O)CCC1CC(OC(=O)NCc2cccc3ccccc23)CC2(CCCC(COC(=O)NCCOc3ccccc3)O2)O1 (some centres not stated): Condition met
- CC(=O)OC[C@H]1O[C@H](CC=NO[C@H](C)c2cn([C@H](CO)Cc3ccccc3)nn2)C=C[C@@H]1OC(C)=O: Condition not met
- COC(=O)CC=C[C@@H](C)[C@@H](C=NO[C@H](C)c1cn([C@H](CO)Cc2ccccc2)nn1)NS(=O)(=O)c1ccc(C)cc1: Condition not met
- CO[C@@H]1COC(=O)[C@@H](C)COC(=O)[C@@H](C)NC(=O)CC=C[C@@H]1C: Condition not met
- COc1ccc(O[C@H]2C=C[C@@H](c3ccccc3)O[C@@H]2CON=C(C)CCC(=O)OC[C@H]2O[C@H](c3ccccc3)C=C[C@@H]2Oc2ccc(OC)cc2)cc1: Condition met
- CO[C@H]1COC(=O)[C@@H](C)COC(=O)[C@H](COCc2ccccc2)NC(=O)CC=C[C@H]1C: Condition met
- CCOC(=O)[C@H](CC(C)C)NC(=O)CCC1CC(OC(=O)NCc2cccc3ccccc23)CC2(CCCC(COC(=O)NCCCN3CCCC3=O)O2)O1 (some centres not stated): Condition not met
- COC(=O)CC=C[C@@H](C)[C@@H](C=NO[C@H](C)c1cn([C@H](CO)Cc2ccccc2)nn1)OC: Condition not met
